Just for reference, patent US20240002497A1 is where these values come from.

Please provide measured MFI for the entries that follow.
Biological target: T1, huNav1.7α + β1-β2-β3 (human, UniProt Q15858 1-1988; A5A6L6 19-218; O60939 30-215; Q2KI11 23-215)
T1 construct: also called huNav1.7-beta1-beta2-beta3; huNav1.7-β1-β2-β3
Test: FACS, CHO Flp-In, competitor 1 µM IRR00092
Unit MFI implied. Number only.

*Q* # MFI lookup, item F0103PMP500E03 (bispecific antibody, crude periplasmic extract; also called F103275B05(N93R)-50GS-F0103500E03 bivalent ISVD) EVQLVESGGGLVQPGGSLRLSCAASGSIFNINSMAWYRRAPGKQRELVASSTNGGSTNYADSVKGRFTISRDNAKRVYLQMNSLTPEDTAVYYCRALLQPSIYDISRTYWGQGTLVTVSSGGGGSGGGGSGGGGSGGGGSGGGGSGGGGSGGGGSGGGGSGGGGSGGGGSEVQLVESGGGLVQAGGSLRLSCAASGRTFSRYQMGWFRQAPGKEREFVAYISWSGSTRYVDSVKGRFTISRDNAKNTVYLQMNSLKPEDTAVYHCAAGTAGIISSRPETYDSWGQGTQVTVSSAAADYKDHDGDYKDHDIDYKDDDDKGAAHHHHHHKAA
*A* 33700

*Q* Value lookup for MFI; key = F0103PMP492E09 (bispecific antibody, crude periplasmic extract; also called F103275B05(N93R)-50GS-F0103492E09 bivalent ISVD) EVQLVESGGGLVQPGGSLRLSCAASGSIFNINSMAWYRRAPGKQRELVASSTNGGSTNYADSVKGRFTISRDNAKRVYLQMNSLTPEDTAVYYCRALLQPSIYDISRTYWGQGTLVTVSSGGGGSGGGGSGGGGSGGGGSGGGGSGGGGSGGGGSGGGGSGGGGSGGGGSEVQLVESGGGLVQAGGSLRLSCAASKSILSFAYMRWYRQAPGKQREFVASIAIGGATSYTDSVKGRFTISRDNAKNTVYLQMNSLKPEDTAVYYCSAPAGQYRGQGTLVTVSSAAADYKDHDGDYKDHDIDYKDDDDKGAAHHHHHHKAAGGGGG
*A* 104000

*Q* Fill in the blank: the reported MFI of F0103PMP505D08 (bispecific antibody, crude periplasmic extract; also called F103275B05(N93R)-50GS-F0103505D08 bivalent ISVD) EVQLVESGGGLVQPGGSLRLSCAASGSIFNINSMAWYRRAPGKQRELVASSTNGGSTNYADSVKGRFTISRDNAKRVYLQMNSLTPEDTAVYYCRALLQPSIYDISRTYWGQGTLVTVSSGGGGSGGGGSGGGGSGGGGSGGGGSGGGGSGGGGSGGGGSGGGGSGGGGSEVQLVESGGGLVQAGGSLRLSCVTSGRTSDLSTMNWFRQAPGKEREFVARITRRGSTYYAESVKERFIISRDNAKNTVYLQMNSLKPEDTANYYCTAASEMGYHYRGQGTQVTVSSAAADYKDHDGDYKDHDIDYKDDDDKGAAHHHHHHKAAGGGGG is ____.
*A* 95400
